Where these numbers come from: PubChem BioAssay (NCATS)

- System: WaGa
- test-description: qHTS assay to identify novel small-molecules to repurpose for Merkel cell carcinoma treatment (AID 1296009); also: nearly all actives have a fitted effect of over 60% in size
- assay-conditions: MCC and control cell lines, CellTiter-Glo viability, 72 h; series mostly up to 46 µM
Inconclusive results are not listed. Active and inactive are the calls of the source. Calls follow the shape of the dose curve; as a rule, active = well fitted inhibition curve with a large enough effect; inconclusive = small, poorly fitted or top-dose-only effect; inactive = flat fitted curve, though single readings scatter.
Could you please pick one outcome from this set? active, inactive

Q: Outcome? C=C[C@@H]1CN2CCC1C[C@@H]2[C@@H](O)c1ccnc2ccccc12 (stereo not given in full)
Result: inactive

Q: What do you get for `C[C@@H]1[C@H](O)[C@@H](C)C=CC=CCCC=CC=CC=CC=C[C@H](O[C@H]2O[C@@H](C)[C@H](O)[C@@H](N)[C@@H]2O)CC2O[C@](O)(C[C@@H](O)[C@H](O)CC[C@@H](O)C[C@@H](O)C[C@@H](O)CC(=O)O[C@H]1C)C[C@H](O)[C@H]2C(=O)O` ?
Result: inactive

Q: What do you get for `CCNC(=O)C[C@@H]1N=C(c2ccc(Cl)cc2)c2cc(OC)ccc2-n2c(C)nnc21` ?
Result: active

Q: What do you get for `O=[N+]([O-])c1ncc[nH]1` ?
Result: inactive

Q: What do you get for `C[C@]12CC[C@@H]3[C@@H](CCC4=CC(=O)CC[C@@H]43)[C@@H]1CC[C@@H]2OC(=O)CCc1ccccc1` ?
Result: inactive

* * *

- test-description: qHTS profiling of the MIPE4 collection as inhibitors of Plasmodium falciparum (DD2) proliferation (Rep 2) (AID 743346)
- assay-conditions: P. falciparum Dd2 in erythrocytes, SYBR Green DNA, 72 h; at 28.5 µM (top of the series)
Entries annotated with measured parasite growth, % of control (lower = inhibition)

CC(C)(O)C(=O)Nc1ccc([N+](=O)[O-])c(C(F)(F)F)c1 | 70.6%

Q: Need parasite growth, % of control (lower = inhibition) of `CCc1c(C(=O)C(N)=O)c2c(OCC(=O)O)cccc2n1Cc1ccccc1` , thanks.
Result: 83.8%

Q: What do you get for `CCOC(=O)Nc1ccc(NCc2ccc(F)cc2)cc1N` ?
Result: 30.4%

Q: What do you get for `CC(=Cc1csc(C)n1)[C@@H]1C[C@H]2O[C@]2(C)CCC[C@H](C)[C@@H](O)[C@@H](C)C(=O)C(C)(C)[C@@H](O)CC(=O)O1` ?
Result: 35.2%

Q: What do you get for `CC(O)=C(C#N)C(=O)Nc1cc(Br)ccc1Br` ?
Result: 78.2%

Q: What do you get for CCOP(=O)(OCC)C(C)NC(=O)N(CCCl)N=O (centres undefined) ?
Result: 135%

* * *

- test-description: Quantitative High-Throughput drug screen in 47 multiple myeloma cell lines against the NCATS MIPE library collection: EJM_DSMZ cell viability assay (AID 1918926; also: nearly all actives have a fitted effect of over 30% in size)
- assay-conditions: EJM myeloma cell viability, CellTiter-Glo ATP, 48 h; series mostly up to 45.8 µM
Records with an inconclusive call do not appear. Calls of active or inactive are those of the source. The call rests on the fitted dose curve; in most records, active means well fitted cell-killing curve with a large enough effect; inconclusive means small, poorly fitted or top-dose-only effect, or effect the other way; inactive means no such curve, though single readings can be large or run the other way.
Could you please pick one outcome from this set? T for active, F for inactive

C=C[C@@H]1CN2CCC1C[C@@H]2[C@@H](O)c1ccnc2ccccc12 (stereo partly drawn) | T
c1ccc2c(CN3CCNCC3)cccc2c1 | F

Continue with the molecule presented below.
Q: Outcome? `CC=C(C)C(=O)O[C@H]1C(C)=C2[C@@H]3OC(=O)[C@@](C)(O)[C@@]3(O)[C@@H](OC(=O)CCC)C[C@](C)(OC(C)=O)[C@@H]2[C@@H]1OC(=O)CCCCCCC`
Result: T

* * *

- target-system: Glucocorticoid receptor (Homo sapiens)
- test-description: qHTS assay for small molecule agonists of glucocorticoid receptor signaling (AID 588532);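 also: 100% = dexamethasone at 0.1 µM and 0% = DMSO only wells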
- assay-conditions: HeLa MMTV-bla, beta-lactamase ratio, agonist, 18 h; stronger effect = higher value; percent of dexamethasone control, DMSO zero
Inconclusive results are not listed.
Entries annotated with measured activation
Note: unit % is implicit; provide only the numeric part.

O=C(O)C(Cl)Cl | -0.327

Q: Need activation of `O=S(=O)(O)C(F)(F)C(F)(F)C(F)(F)C(F)(F)F` , thanks.
Result: 0.888

Q: What do you get for `O=[N+]([O-])/N=C1\NCCN1Cc1ccc(Cl)nc1` ?
Result: 6.65

Q: What do you get for `O=[N+]([O-])c1cc([N+](=O)[O-])c2ccccc2c1` ?
Result: -0.539

* * *

- test-description: Quantitative High-Throughput drug screen in 47 multiple myeloma cell lines against the NCATS MIPE library collection: ARD_JJKsccE7 cell viability assay (AID 1918929; also: potency is read from the fitted curve at half-maximal effect;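 as to viability: 100% = DMSO-only wells and 0% = media-only wells without cells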)
- assay-conditions: ARD myeloma cell line viability, CellTiter-Glo, 48 h; series mostly up to 45.8 µM
Results filed as inconclusive are left out. The source made the active and inactive calls. Calls follow the shape of the dose curve; as a rule, active = well fitted cell-killing curve with a large enough effect; inconclusive = small, poorly fitted or top-dose-only effect, or effect the other way; inactive = no such curve, though single readings can be large or run the other way.
measured-parameter: Potency

For orientation, consider the following solved cases.
CCCN1CCO[C@@H]2c3cc(O)ccc3OC[C@@H]21 | inactive
CC=C(C)C(=O)N[C@@H](c1ccccc1)[C@@H](O)C(=O)O[C@H]1C[C@@]2(O)[C@@H](OC(=O)c3ccccc3)[C@@H]3[C@]4(OC(C)=O)CO[C@@H]4C[C@H](O)[C@@]3(C)C(=O)[C@H](OC(C)=O)C(=C1C)C2(C)C | 0.001 µM (active)
COc1ccc2c(c1)[C@]13CCCCC1C(C2)N(C)CC3 (stereo partly specified) | inactive
NC1=NC(=O)N2CC12 (stereo unspecified) | 18.7 µM (active)
CN(C)NC(=O)CCC(=O)O | inactive

Turning to the following compound.
Q: Need Potency of `CC(C)N[C@@H]1CCn2c(=O)[nH]c3cccc(c32)[C@@H]1O` , thanks.
Result: 6.62 µM (active)

* * *

- System: HaCat
- test-description: Cytotoxic Profiling of Annotated Libraries Using Quantitative High-Throughput Screening (AID 1296008); also: % is scaled to controls: 0 for no effect and ±100 for the full control effect; nearly all actives have a fitted effect of over 60% in size
- assay-conditions: Five cell lines viability, CellTiter-Glo ATP luminescence, 48-72 h; stronger effect = lower value
Records with an inconclusive call do not appear.
Quick rule for you: max response under -10% gets MET, anything else gets NOT MET.

Solved entries (count: 5):
CC1=C(C(=O)O)N2C(=O)[C@@H](N)[C@H]2SC1 | NOT MET
NC1CC1c1ccccc1 (stereo unspecified) | NOT MET
CCC(=O)O[C@@H]1C=C2CCC3C(CCC4(C)C3CC[C@@H]4OC(=O)CC)C2CC1 (stereo partly specified) | MET
CC(C)NCC(O)c1ccc([N+](=O)[O-])cc1 (stereo unspecified) | MET
CCN(CC)C(=O)c1ccc(C2=CC3(CCNCC3)Oc3cccc(O)c32)cc1 | NOT MET

Continue with the compound presented below.
Q: Quick check: does `O=c1cccc2n1CC1CNC[C@H]2C1` have max response under -10%?
Result: MET

* * *

- Test system: P93_24
- test-description: qHTS profiling for inhibitors of Plasmodium falciparum proliferation (AID 504749); also: nearly all actives have a fitted effect of over 60% in size; also: potency is read from the fitted curve at half-maximal effect
- assay-conditions: P. falciparum in erythrocytes, SYBR Green DNA, 72 h; series mostly up to 28.7 µM
Records with an inconclusive call do not appear. Activity calls are given as the source filed them. Calls follow the shape of the dose curve; as a rule, active = well fitted inhibition curve with a large enough effect; inconclusive = small, poorly fitted or top-dose-only effect; inactive = flat fitted curve, though single readings scatter.
measured-parameter: Potency

For orientation, consider the following solved cases.
COC(=O)[C@@H](N)CCCN=C(N)N[N+](=O)[O-] | inactive
O=[N+]([O-])c1ccc([As](=O)(O)O)cc1 | 5.01 µM (active)
C1CCC(NC2CCCCC2)CC1 | inactive
CN1C2CCC1CC(OC(=O)c1cc(Cl)cc(Cl)c1)C2 (centres undefined) | inactive
CCCCc1ccc(C(=O)O)nc1 | inactive
CC(C)NC(C)Cc1ccc(I)cc1 (centres undefined) | inactive
CC(=O)[O][Hg][c]1ccccc1 | 5.01 µM (active)
C#CC1(O)CCC2C3CCC4=CC(=O)CCC4(C)C3CCC21C (centres undefined) | inactive

Q: Need Potency of COC(C)(C)CCCC(C)C/C=C/C(C)=C/C(=O)OC(C)C (centres undefined) , thanks.
Result: 8.91 µM (active)

* * *

- test-description: Quantitative High-Throughput drug screen in 47 multiple myeloma cell lines against the NCATS MIPE library collection: EJM_DSMZ cell viability assay (AID 1918926)
- assay-conditions: EJM myeloma cell viability, CellTiter-Glo ATP, 48 h; series mostly up to 45.8 µM
Inconclusive results are not listed. The source made the active and inactive calls. Calls follow the shape of the dose curve; as a rule, active = well fitted cell-killing curve with a large enough effect; inconclusive = small, poorly fitted or top-dose-only effect, or effect the other way; inactive = no such curve, though single readings can be large or run the other way.
Could you please pick one outcome from this set? active, inactive

CCOC(=O)c1cncn1[C@H](C)c1ccccc1 | inactive
Cc1ccccc1-n1c(Cn2ncc3c(N)ncnc32)nc2cccc(C)c2c1=O | active
CC(=Cc1csc(C)n1)[C@@H]1C[C@H]2O[C@@H]2CCC[C@H](C)[C@@H](O)[C@@H](C)C(=O)C(C)(C)[C@@H](O)CC(=O)O1 | inactive
CC[C@@H]1[C@@H](C)O[C@@](O)([C@@H](C)[C@H](O)[C@H](C)[C@H]2OC(=O)C=CC=C[C@@H](C)[C@@H]([C@@H](C)[C@@H](O)[C@H](C)[C@@]3(O)C[C@H](O[C@H]4C[C@H](O)[C@H](O)[C@H](C)O4)[C@H](CC)[C@@H](C)O3)OC(=O)C=CC=C[C@@H]2C)C[C@H]1O[C@H]1C[C@H](O)[C@H](O)[C@H](C)O1 | active
Oc1ccc2c3c1O[C@H]1c4[nH]c5c(c4C[C@@]4(O)[C@@H](C2)N(CC2CC2)CC[C@]314)C[C@@]1(O)[C@H]2Cc3ccc(O)c4c3[C@@]1(CCN2CC1CC1)[C@H]5O4 | inactive

Continue with the compound presented below.
Q: Outcome? `CC[C@@]1(O)C(=O)OCc2c1cc1n(c2=O)Cc2cc3ccccc3nc2-1`
Result: active
